target: T1, N-terminally HA-tagged chimeric TM4SF20 version 2 expressed on CHO DG44 cells (chimeric TM4SF20 ver.2_CHO) (human TM4SF20 with the second loop …)
T1 construct: also called chimeric TM4SF20 ver.2_ntHA
T1 chain: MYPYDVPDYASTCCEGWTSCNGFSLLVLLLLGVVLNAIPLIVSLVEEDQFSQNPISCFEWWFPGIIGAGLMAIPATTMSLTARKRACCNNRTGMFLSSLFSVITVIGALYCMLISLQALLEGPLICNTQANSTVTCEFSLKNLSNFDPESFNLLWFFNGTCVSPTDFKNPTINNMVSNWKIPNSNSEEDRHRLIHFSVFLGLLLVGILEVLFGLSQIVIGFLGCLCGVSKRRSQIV
assay_explanation: flow cytometry, hybridoma culture supernatant on chimeric TM4SF20 ver.2_CHO cells
Protocol: Next, 5×10⁴ cells suspended in FACS buffer were dispensed to a U-bottom 96-well plate. The anti-TM4SF20 antibody (hybridoma culture supernatant) or the HAT medium as a negative control was added thereto at a concentration of 10 μg/mL. After reaction on ice for 1 hour, the cells were washed with FACS buffer. […] The assay data was analyzed as to PI-negative cell populations using CELLQuest software. […]

[
  {
    "binder": "anti-TM4SF20 antibody C9 (antibody, mouse IgG1, V domains shown, also called clone C9) VH: QVQLKESGPDLVQPSQTLSLTCTVSGFSLSSYGVHWVRQPPGKGLEWVGTMGWDDKKYYNSALNSRLSLSRDTSKNQVFLKLSSLQTEDTAMYYCTRDYYSDGSFAYWGQGTLVTVSA VL: DVLMTQTPLSLPVSLGDQASISCKSSQSIVHSDGNTYLQWYLQKPGQSPKLLIYKVSNRFSGVPDRFSGSGSGTDFTLKISRVEAEDLGIYYCFQGSHVPPTFGTGTKLEIK",
    "binding result": "no binding"
  },
  {
    "binder": "anti-TM4SF20 antibody B15 (antibody, mouse IgG2a, V domains shown, also called clone B15) VH: RVQLKESGPDLVQPSQTLSLTCTVSGFSLTNYGVHWIRQPPGKGLEWVGTVGWDDKKYYNSVLKSRLSINRDTSKNQVFLKLSSLQTEDTAMYYCTPYYDGSPYVMDYWGQGTSVTVSS VL: DIVMSQSPSSLAVSAGEKVTMTCKSSQSLFDSGTRKNYLAWYQQKPGQSPKLLIYWASTRESGVPDRFTGSGSGTDFTLTISSVQAEDLAVYYCKQSYYLLTFGAGTKLELK",
    "binding result": "no binding"
  }
]

Source: patent US20120004117A1
